The measured values listed here are drawn from the supplement of paper PMC8728848.

Assay system: Fuc(a1-2)[GalNAc(a1-3)]Gal(b1-4)GlcNAc(b1-3)Gal(b1-4)GlcNAc(b1-3)Gal(b1-4)GlcNAc
Protocol text: glycan array binding signal (z-score within array); higher = stronger binding
Details: glycan notation: IUPAC condensed, linker removed
About 410 targets per protein were measured; listed, in parts, are those with the strongest signals and a random draw of the rest.
Listed below: glycan array binding signal (z-score) values for each entry.
Enter the number alone.

Take a look at these entries with their results.
Binder	glycan array binding signal (z-score)
PpFlo3 (Pichia pastoris) (protein) MGSSHHHHHHSSGLVPRGSHMQESGNGTTSDTAYACDIGATPFDGFNATIYQYQASDDNSIQDPVFMSTGYLQRNQLHSTTGVTNPGFNIFTAGVATTTLYGIPNVNYQNMLLELKGYFRADASGNYGLSLRNIDDSAILFFGRETAFECCNENLIPLDEAPTDYSLFTIKEGEASTNPDSYTYTQYLEAGRYYPVRTFFANIRTRAVFNFTMTLPDGSELTDFQNYIFQFGALNQ	-0.303
rCNL (Clitocybe nebularis), B2ZRS9 (protein) SITPGTYNITNVAYTNRLIDLTGSNPAENTLIIGHHLNKTPSGYGNQQWTLVQLPHTTIYTMQAVNPQSYVRVRDDNLVDGAALVGSQQPTPVSIESAGNSGQFRIKIPNLGLALTLPSDANSTPIVLGEVDETSTNQLWAFESVSAV	3.25

What value of glycan array binding signal (z-score) has been reported for the following binder? CSA (Cytisus scoparius), P29257 (protein) SEELSFSFTKFKTDQKNLILQRDALITPTGKLQLTTVENGKPAAYSLGRALYSTPIHIWDKSTGDEASFATFFSFVISDAPNPSTAATDGLAFFLAPADTQPQSAGGYLGLFEKDSSYNSSNQIVAVEFDTYYNSAWDPQTNPHIGIDVNTIKSKKVSSWGFKNGNVATVLITYQPSSKSLVASLVYPSGQTSDKTSYIISANVDLKATVPEWVRIGFSATTGQTDNYIETHDILSWSFKSKLPATKN
-0.012
